Where these numbers come from: paper PMC9496258

System: 6F11-rAb
assay: icELISA with full-length recombinant 6F11-rAb
Type: binding, mouse
experimental-parameters: imidacloprid-OVA 10 µg/mL
Assignment: determine reported IC50 for the given compounds.
Response body: numeric value in ng/mL, unit text excluded.

Reported IC50, compound O=[N+]([O-])NC1=NCCN1Cc1ccc(Cl)nc1 [Imidacloprid, imidacloprid] : ____
0.36

Reported IC50, compound O=[N+]([O-])/C=C1\NCCN1Cc1ccc(Cl)nc1 [6-Cl-PMNI] : ____
0.36

Reported IC50, compound N#C/N=C1\SCCN1Cc1ccc(Cl)nc1 [Thiacloprid, thiacloprid] : ____
2.89

Reported IC50, compound O=[N+]([O-])/N=C1\NCOCN1Cc1cnc(Cl)s1 [N-desmethyl thiamethoxam] : ____
0.53

Reported IC50, compound O=[N+]([O-])/N=C1\NCCN1Cc1cnc(Cl)s1 [Imidaclothiz, imidaclothiz] : ____
0.30

Reported IC50, compound CCN(Cc1ccc(Cl)nc1)/C(=C/[N+](=O)[O-])NC [Nitenpyram, nitenpyram] : ____
7.07

Reported IC50, compound C/C(=N\C#N)N(C)Cc1ccc(Cl)nc1 [Acetamiprid, acetamiprid] : ____
9.04

Reported IC50, compound CN/C(=N\[N+](=O)[O-])NCc1cnc(Cl)s1 [Clothianidin, clothianidin] : ____
0.86
